ASSAYED_SYSTEM: ATP-dependent translocase ABCB1 (Homo sapiens, UniProt P08183)
Sequence (P08183 whole entry): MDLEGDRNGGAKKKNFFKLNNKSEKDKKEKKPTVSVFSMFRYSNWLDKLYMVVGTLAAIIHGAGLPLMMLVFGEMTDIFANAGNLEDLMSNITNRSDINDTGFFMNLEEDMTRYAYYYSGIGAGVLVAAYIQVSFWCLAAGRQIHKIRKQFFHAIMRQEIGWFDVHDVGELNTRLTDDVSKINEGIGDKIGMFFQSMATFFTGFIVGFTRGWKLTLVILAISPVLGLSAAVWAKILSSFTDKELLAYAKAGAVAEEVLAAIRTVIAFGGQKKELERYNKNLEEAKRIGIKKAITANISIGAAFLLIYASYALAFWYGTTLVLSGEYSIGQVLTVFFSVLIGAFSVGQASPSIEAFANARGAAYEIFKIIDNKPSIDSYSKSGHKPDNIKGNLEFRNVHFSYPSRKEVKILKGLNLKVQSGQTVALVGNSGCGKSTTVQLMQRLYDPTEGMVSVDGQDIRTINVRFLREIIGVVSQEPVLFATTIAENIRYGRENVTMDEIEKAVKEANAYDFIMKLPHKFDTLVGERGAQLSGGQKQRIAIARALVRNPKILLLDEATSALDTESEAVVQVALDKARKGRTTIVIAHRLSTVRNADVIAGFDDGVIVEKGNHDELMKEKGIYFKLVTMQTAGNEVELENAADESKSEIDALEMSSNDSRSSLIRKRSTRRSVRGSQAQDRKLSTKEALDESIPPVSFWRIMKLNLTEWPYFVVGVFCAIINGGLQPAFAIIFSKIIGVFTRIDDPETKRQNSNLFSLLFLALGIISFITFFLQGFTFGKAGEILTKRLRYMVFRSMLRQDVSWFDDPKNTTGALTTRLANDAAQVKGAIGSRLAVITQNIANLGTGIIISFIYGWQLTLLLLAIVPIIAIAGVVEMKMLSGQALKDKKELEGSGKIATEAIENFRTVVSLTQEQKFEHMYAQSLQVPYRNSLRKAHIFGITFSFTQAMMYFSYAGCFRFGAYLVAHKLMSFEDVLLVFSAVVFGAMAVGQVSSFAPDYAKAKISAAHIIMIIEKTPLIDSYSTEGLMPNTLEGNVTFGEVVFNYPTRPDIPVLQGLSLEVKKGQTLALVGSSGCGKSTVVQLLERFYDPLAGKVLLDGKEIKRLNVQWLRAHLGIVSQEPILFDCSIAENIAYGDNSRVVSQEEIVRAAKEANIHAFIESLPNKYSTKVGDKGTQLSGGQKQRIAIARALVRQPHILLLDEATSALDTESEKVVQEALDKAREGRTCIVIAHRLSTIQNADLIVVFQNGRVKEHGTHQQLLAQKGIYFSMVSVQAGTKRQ
TEST_NAME: Inhibition of MDR1 (unknown origin) expressed in MDCK cells assessed as reduction in calcein-AM efflux preincubated for 30 mins followed by calcein-AM addition measured after 30 mins by fluorescence assay
pEC50: −log10 of the molar value.
PROPERTY_NAME: pEC50

1. COc1cc2c(cc1OC)CN(Cc1ccc(-c3ccc(O)cc3N)cc1)CC2 ... 5.27
2. COc1cc2c(cc1OC)CN(Cc1ccc(-c3ccc(O)c([N+](=O)[O-])c3)cc1)CC2 ... 4.90
3. COc1cc2c(cc1OC)CN(Cc1ccc(-c3ccc(O)c(F)c3)cc1)CC2 ... 5.55
4. COc1cc(-c2ccc(O)cc2)ccc1CN1CCc2cc(OC)c(OC)cc2C1 ... 5.80
5. COc1cc2c(cc1OC)CN(Cc1ccc(-c3ccc(O)c(N)c3)cc1)CC2 ... 5.16
6. COc1cc2c(cc1OC)CN(Cc1ccc(-c3ccc(O)cc3)c(F)c1)CC2 ... 5.21

I. COc1cc2c(cc1OC)CN(Cc1ccc(-c3ccc(O)cc3F)cc1)CC2
II. COc1cc2c(cc1OC)CN(Cc1ccc(-c3ccc(O)cc3)cc1[N+](=O)[O-])CC2
III. COc1cc2c(cc1OC)CN(Cc1ccc(-c3ccc(O)cc3)cc1F)CC2
Enquiry: Rank by pEC50 (largest to smallest). Answer by writing out the labels in the requested order.
Return: I, III, II
(I: 5.66, III: 5.33, II: 5.08)

---

ASSAYED_SYSTEM: ATP-dependent translocase ABCB1 (Homo sapiens, UniProt P08183)
TEST_NAME: Inhibition of MDR1 (unknown origin) expressed in MDCK cells assessed as reduction in calcein-AM efflux preincubated for 30 mins followed by calcein-AM addition measured after 30 mins by fluorescence assay
PROPERTY_NAME: EC50 (nM)

1) COc1cc2c(cc1OC)CN(Cc1ccc(-c3ccc(O)cc3OC)cc1)CC2 ... 1860

1. COc1cc2c(cc1OC)CN(Cc1ccc(-c3ccc(O)cc3)c([N+](=O)[O-])c1)CC2
2. COc1cc2c(cc1OC)CN(Cc1ccc(-c3ccc(O)cc3)c(OC)c1)CC2
3. COc1cc2c(cc1OC)CN(Cc1ccc(-c3ccc(O)cc3[N+](=O)[O-])cc1)CC2
Enquiry: Order the entries by their reported EC50, beginning at the minimum. Answer by writing out the labels in the requested order.
Return: 2, 3, 1
(2: 1510 nM, 3: 2540 nM, 1: 15200 nM)

---

TEST_NAME: Efflux ratio of apparent permeability from basolateral to apical over apical to basolateral side in human Caco2 cells at 100 uM after 120 mins
Assay type: ADME, cell-based
MEASUREMENT_PARAMETERS: Caco-2
PROPERTY_NAME: efflux ratio at 2 h, 100 µM

Here is how some molecules turned out for efflux ratio at 2 h, 100 µM.
1. COc1cc2c(cc1OC)CN(Cc1ccc(-c3ccc(O)cc3[N+](=O)[O-])cc1)CC2 ... 11.2
2. COc1cc2c(cc1OC)CN(Cc1ccc(-c3ccc(O)c(N)c3)cc1)CC2 ... 7.5

I. COc1cc2c(cc1OC)CN(Cc1ccc(-c3ccc(O)cc3)c([N+](=O)[O-])c1)CC2
II. COc1cc2c(cc1OC)CN(Cc1ccc(-c3ccc(O)cc3F)cc1)CC2
Enquiry: Sorting by efflux ratio at 2 h, 100 µM in descending order, would I or II appear first? Please reply using the label of the selected record.
Return: II
(II: 4.5, I: 2.9)
